- assay.info: Gelation capability of gelators, stable-to-inversion of container method (minimum gelation concentration, gel stability and clarity)
- Format: physicochemical
- Set-up: key: —: no gel formed
- applied.conditions: pH 2 (0.01 M hydrochloric buffer)
measured.quantity: minimum gelation concentration (MGC)

O=C(CCCC[C@@H]1SC[C@@H]2NC(=O)N[C@@H]21)N[C@@H](Cc1ccc(O)cc1)C(=O)O: —
O=C(CCCC[C@@H]1SC[C@@H]2NC(=O)N[C@@H]21)N[C@@H](Cc1c[nH]c2ccccc12)C(=O)O: —
CSCC[C@H](NC(=O)CCCC[C@@H]1SC[C@@H]2NC(=O)N[C@@H]21)C(=O)O: —
